- System: Escherichia coli SS
- Test name: in vitro antibacterial activity, agar dilution MIC
- Assay type: cell-based
- Particulars: organism code RR, BHI agar, 35-37 °C, 20 to 24 hours
Reported minimum inhibitory concentration (MIC) values for a set of compounds
Just the number, please, no unit attached.

Structure notation: CC[C@H]1OC(=O)[C@H](C)[C@@H](O[C@H]2C[C@@](C)(OC)[C@@H](OC(C)=O)[C@H](C)O2)[C@H](C)[C@@H](O[C@@H]2O[C@H](C)C[C@H](N(C)C)[C@H]2O)[C@@]2(C)C[C@@H](C)C(=O)[C@H](C)[C@H]3N(CCNCc4cccc(c4)C=CCO2)C(=O)O[C@]13C
Obs value: 6.2

Structure notation: CC[C@H]1OC(=O)[C@H](C)[C@@H](O[C@H]2C[C@@](C)(OC)[C@@H](O)[C@H](C)O2)[C@H](C)[C@@H](O[C@@H]2O[C@H](C)C[C@H](N(C)C)[C@H]2O)[C@@]2(C)C[C@@H](C)C(=O)[C@H](C)[C@H]3N(CCC=CCO2)C(=O)O[C@]13C
Obs value: 0.78

Turning now to a further record.
Problem: Would you kindly share the measured minimum inhibitory concentration (MIC) for `CC[C@H]1OC(=O)[C@H](C)[C@@H](O[C@H]2C[C@@](C)(OC)[C@@H](O)[C@H](C)O2)[C@H](C)[C@@H](O[C@@H]2O[C@H](C)C[C@H](N(C)C)[C@H]2O)[C@@]2(C)C[C@@H](C)C(=O)[C@H](C)[C@H]3N(CCNC(=O)Cc4ccccc4C=CCO2)C(=O)O[C@]13C` ?
Result: 3.1

----------
Listing of entries alongside the reported minimum inhibitory concentration (MIC).
- System: Micrococcus luteus ATCC 9341
- Test name: in vitro antibacterial activity, agar dilution MIC
- Assay type: cell-based
- Particulars: organism code OO, BHI agar, 35-37 °C, 20 to 24 hours
- Procedure: Erythromycin A was used for this purpose. After incubation, each plate was visually inspected.

Solved cases (3 shown):
Structure notation: CC[C@H]1OC(=O)[C@H](C)[C@@H](O[C@H]2C[C@@](C)(OC)[C@@H](O)[C@H](C)O2)[C@H](C)[C@@H](O[C@@H]2O[C@H](C)C[C@H](N(C)C)[C@H]2O)[C@@]2(C)C[C@@H](C)C(=O)[C@H](C)[C@H]3N(CCNC(=O)c4ccccc4C=CCO2)C(=O)O[C@]13C
Assayed target: Micrococcus luteus ATCC 9341
minimum inhibitory concentration (MIC): 0.2

Structure notation: CC[C@H]1OC(=O)[C@H](C)[C@@H](O[C@H]2C[C@@](C)(OC)[C@@H](O)[C@H](C)O2)[C@H](C)[C@@H](O[C@@H]2O[C@H](C)C[C@H](N(C)C)[C@H]2O)[C@@]2(C)C[C@@H](C)C(=O)[C@H](C)[C@H]3N(CCNC(=O)Cc4ccccc4C=CCO2)C(=O)O[C@]13C
Assayed target: Micrococcus luteus ATCC 9341
minimum inhibitory concentration (MIC): 0.1

Structure notation: CC[C@H]1OC(=O)[C@H](C)C(=O)[C@H](C)[C@@H](O[C@@H]2O[C@H](C)C[C@H](N(C)C)[C@H]2O)[C@@]2(C)C[C@@H](C)C(=O)[C@H](C)[C@H]3N(CCC=CCO2)C(=O)O[C@]13C
Assayed target: Micrococcus luteus ATCC 9341
minimum inhibitory concentration (MIC): 0.39

Problem: # get_value(readout='minimum inhibitory concentration (MIC)', item= `CC[C@H]1OC(=O)[C@H](C)C(=O)[C@H](C)[C@@H](O[C@@H]2O[C@H](C)C[C@H](N(C)C)[C@H]2O)[C@@]2(C)C[C@@H](C)C(=O)[C@H](C)[C@H]3N(CC=CCO2)C(=O)O[C@]13C` )
Result: 0.2

----------
Measured minimum inhibitory concentration (MIC), listed per entry for reference.
- Tested on: Staphylococcus aureus 1775
- Test name: in vitro antibacterial activity, agar dilution MIC
- Format: cell-based
- Particulars: organism code GG, BHI agar, 35-37 °C, 20 to 24 hours

Compound: CC[C@H]1OC(=O)[C@H](C)[C@@H](O[C@H]2C[C@@](C)(OC)[C@@H](O)[C@H](C)O2)[C@H](C)[C@@H](O[C@@H]2O[C@H](C)C[C@H](N(C)C)[C@H]2O)[C@@]2(C)C[C@@H](C)C(=O)[C@H](C)[C@H]3N(CCNC(=O)c4ccccc4C=CCO2)C(=O)O[C@]13C
Assayed target: Staphylococcus aureus 1775
minimum inhibitory concentration (MIC): >100

Problem: If you can, please state the reported minimum inhibitory concentration (MIC) value of CC[C@H]1OC(=O)[C@H](C)[C@@H](O[C@H]2C[C@@](C)(OC)[C@@H](O)[C@H](C)O2)[C@H](C)[C@@H](O[C@@H]2O[C@H](C)C[C@H](N(C)C)[C@H]2O)[C@@]2(C)C[C@@H](C)C(=O)[C@H](C)[C@H]3N(CC(O)CC=CCO2)C(=O)O[C@]13C (some centres unmarked) .
Result: >100

----------
The reader will find reported minimum inhibitory concentration (MIC) values listed item by item below.
- Tested on: Streptococcus Pheumoniae 5649
- Test name: in vitro antibacterial activity, agar dilution MIC
- Format: cell-based
- Particulars: organism code ZZA, BHI agar, 35-37 °C, 20 to 24 hours
The reply should be a number, written without any unit.

Examples with answers:
Compound: CC[C@H]1OC(=O)[C@H](C)[C@@H](O[C@H]2C[C@@](C)(OC)[C@@H](O)[C@H](C)O2)[C@H](C)[C@@H](O[C@@H]2O[C@H](C)C[C@H](N(C)C)[C@H]2O)[C@@]2(C)C[C@@H](C)C(=O)[C@H](C)[C@H]3N(CC(O)CC=CCO2)C(=O)O[C@]13C (stereo partly shown)
minimum inhibitory concentration (MIC): 16

Compound: CC[C@H]1OC(=O)[C@H](C)C(=O)[C@H](C)[C@@H](O[C@@H]2O[C@H](C)C[C@H](N(C)C)[C@H]2O)[C@@]2(C)C[C@@H](C)C(=O)[C@H](C)[C@H]3N(CC=CCO2)C(=O)O[C@]13C
minimum inhibitory concentration (MIC): 0.5

Compound: CC[C@H]1OC(=O)[C@H](C)[C@@H](O[C@H]2C[C@@](C)(OC)[C@@H](O)[C@H](C)O2)[C@H](C)[C@@H](O[C@@H]2O[C@H](C)C[C@H](N(C)C)[C@H]2O)[C@@]2(C)C[C@@H](C)C(=O)[C@H](C)[C@H]3N(CCNCc4cccc(c4)C=CCO2)C(=O)O[C@]13C
minimum inhibitory concentration (MIC): 32

Problem: Recorded minimum inhibitory concentration (MIC) for `CC[C@H]1OC(=O)[C@H](C)C(=O)[C@H](C)[C@@H](O[C@@H]2O[C@H](C)C[C@H](N(C)C)[C@H]2O)[C@@]2(C)C[C@@H](C)C(=O)[C@H](C)[C@H]3N(CCC=CCO2)C(=O)O[C@]13C` , please?
Result: 2

----------
- Tested on: Enterococcus faecium ATCC 8043
- Test name: in vitro antibacterial activity, agar dilution MIC
- Format: cell-based
- Particulars: organism code II, BHI agar, 35-37 °C, 20 to 24 hours
- Procedure: Erythromycin A was used for this purpose. After incubation, each plate was visually inspected.
Metric name: minimum inhibitory concentration (MIC)
Just the number, please, no unit after it.

Take a look at these entries with their results.
Structure notation: CC[C@H]1OC(=O)[C@H](C)[C@@H](O[C@H]2C[C@@](C)(OC)[C@@H](OC(C)=O)[C@H](C)O2)[C@H](C)[C@@H](O[C@@H]2O[C@H](C)C[C@H](N(C)C)[C@H]2O)[C@@]2(C)C[C@@H](C)C(=O)[C@H](C)[C@H]3N(CCNCc4cccc(c4)C=CCO2)C(=O)O[C@]13C
minimum inhibitory concentration (MIC): 0.78

Structure notation: CC[C@H]1OC(=O)[C@H](C)C(=O)[C@H](C)[C@@H](O[C@@H]2O[C@H](C)C[C@H](N(C)C)[C@H]2O)[C@@]2(C)C[C@@H](C)C(=O)[C@H](C)[C@H]3N(CC=CCO2)C(=O)O[C@]13C
minimum inhibitory concentration (MIC): 0.2

Structure notation: CC[C@H]1OC(=O)[C@H](C)[C@@H](O[C@H]2C[C@@](C)(OC)[C@@H](O)[C@H](C)O2)[C@H](C)[C@@H](O[C@@H]2O[C@H](C)C[C@H](N(C)C)[C@H]2O)[C@@]2(C)C[C@@H](C)C(=O)[C@H](C)[C@H]3N(CCNC(=O)Cc4ccccc4C=CCO2)C(=O)O[C@]13C
minimum inhibitory concentration (MIC): 0.39

Note: attention shifts to another entry.
Problem: Param readout = minimum inhibitory concentration (MIC); param system = Enterococcus faecium ATCC 8043; param query = `CC[C@H]1OC(=O)[C@H](C)[C@@H](O[C@H]2C[C@@](C)(OC)[C@@H](O)[C@H](C)O2)[C@H](C)[C@@H](O[C@@H]2O[C@H](C)C[C@H](N(C)C)[C@H]2O)[C@@]2(C)C[C@@H](C)C(=O)[C@H](C)[C@H]3N(CCNCc4cccc(c4)C=CCO2)C(=O)O[C@]13C` ; response: value
Result: 0.2
